Sourced from patent US8026218

Target: T1, rat µ opioid receptor (rat, UniProt P33535 1-398)
T1 construct: whole, on cells; Assayed as membrane preparations of transfected cells; also called rMOR; MOR
T1 sequence (P33535 whole entry): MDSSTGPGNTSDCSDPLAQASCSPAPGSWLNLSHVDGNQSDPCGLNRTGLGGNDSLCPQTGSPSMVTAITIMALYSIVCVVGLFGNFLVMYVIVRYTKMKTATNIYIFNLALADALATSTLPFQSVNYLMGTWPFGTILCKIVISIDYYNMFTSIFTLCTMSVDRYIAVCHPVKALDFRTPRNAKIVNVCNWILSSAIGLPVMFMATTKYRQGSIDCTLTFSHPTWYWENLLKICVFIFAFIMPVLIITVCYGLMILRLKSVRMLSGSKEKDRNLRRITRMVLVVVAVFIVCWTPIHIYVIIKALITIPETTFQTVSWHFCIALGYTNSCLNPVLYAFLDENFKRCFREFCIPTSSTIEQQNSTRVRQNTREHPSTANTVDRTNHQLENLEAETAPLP
Experiment: competition vs [3H]DAMGO, membranes of rMOR-transfected HN9.10 cells
Square brackets hold non-standard residues; d marks the D form. * marks the point of attachment. OBzl(3,5-(CF3)2) = FC(F)(F)c1cc(CO*)cc(C(F)(F)F)c1
Test readout: Ki (nM)
Report only the number, with the unit nM understood.

Ask: Look at this binder and give its reported Ki. H-Y[dA]GFLPLW-{OBzl(3,5-(CF3)2)} (also: TFA salt, TFA salt; also called TY004) [H-Tyr-D-Ala-Gly-Phe-Leu-Pro-Leu-Trp-O-3,5-Bzl(CF3)2]
Result: 23.3

Ask: Look at this binder and give its reported Ki. H-Y[dA]GF[dF]PLW-{OBzl(3,5-(CF3)2)} (also: TFA salt, TFA salt; also called TY007) [H-Tyr-D-Ala-Gly-Phe-D-Phe-Pro-Leu-Trp-O-3,5-Bzl(CF3)2]
Result: 381

Ask: Look at this binder and give its reported Ki. H-Y[dA]GFGPLW-{OBzl(3,5-(CF3)2)} (also: TFA salt, TFA salt; also called TY006) [H-Tyr-D-Ala-Gly-Phe-Gly-Pro-Leu-Trp-O-3,5-Bzl(CF3)2]
Result: 27

Ask: Look at this binder and give its reported Ki. H-Y[dA]GFFPLW-{OBzl(3,5-(CF3)2)} (also: TFA salt, TFA salt; also called TY003) [H-Tyr-D-Ala-Gly-Phe-Phe-Pro-Leu-Trp-O-3,5-Bzl(CF3)2]
Result: 28.3
